# Tested on: methicillinsusceptible S. aureus strain ATCC 13709
# assay.comment: In vivo antibacterial evaluation, murine model for lethal bacteremic peritonitis
# Set-up: species or system S. aureus in female Swiss-Webster mice
# test.conditions: Staphylococcus aureus, ATCC13709, sc, 72 h, two equal SC doses at challenge and 2 hours later, mice, probit, read-out: ED50
Structures can show the parent of a compound that is named as a salt.
attribute.measured: ED50 (mg/kg)
Write down the numeric answer in mg/kg and omit the unit.

>>> measured_value("N#CCC(=O)N[C@@H]1C(=O)N2C(C(=O)O)=C(Sc3ccccc3I)CS[C@H]12 [Cmpd 17]")
3.41
>>> measured_value("CSCC(=O)N[C@@H]1C(=O)N2C(C(=O)O)=C(Sc3ccnn3-c3ccccc3)CS[C@H]12 [Cmpd 106]")
0.72
>>> measured_value("O=C(Cc1ccccc1)N[C@@H]1C(=O)N2C(C(=O)O)=C(Sc3cccnc3-n3cccn3)CS[C@H]12 [Cmpd 103]")
2.67

// query ED50 value for entry N=C(N)SCc1ccccc1SC1=C(C(=O)O)N2C(=O)[C@@H](NC(=O)Cc3ccccc3CN)[C@H]2SC1 [Cmpd 101, trifluoroacetic acid salt]
0.65

I am curious: what ED50 value has been reported for O=C(O)C1=C(Sc2ccnn2-c2ccccc2)CS[C@@H]2[C@H](NC(=O)C3SCCS3)C(=O)N12 [Cmpd 115] ?
3.04

I'd like to know its ED50. The molecule in question is O=C(Cc1ccccc1)N[C@@H]1C(=O)N2C(C(=O)O)=C(Sc3ccnn3-c3ccccc3)CS[C@H]12 [Cmpd 87]
1.89

Bench note: what ED50 did O=C(Cc1ccccc1)N[C@@H]1C(=O)N2C(C(=O)O)=C(Sc3cccnc3-c3ccccc3)CS[C@H]12 [Cmpd 81] show?
8.46

----------
# System: S. aureus Col8A (Meth^S)(lac^-)
# assay.comment: In vitro antibacterial evaluation, MIC by agar dilution, S. aureus Col8A
# Format: cell-based
# test.conditions: Staphylococcus aureus
attribute.measured: MIC

Reference set, count: 5
>>> measured_value("COC(=O)c1ccccc1SC1=C(C(=O)O)N2C(=O)[C@@H](NC(=O)Cc3ccccc3)[C@H]2SC1")
"< 0.25 µg/mL"
>>> measured_value("O=C(Cc1ccc(Cl)cc1)N[C@@H]1C(=O)N2C(C(=O)O)=C(Sc3cccnc3-c3ccccc3)CS[C@H]12")
"< 0.25 µg/mL"
>>> measured_value("O=C(Cc1ccccc1)N[C@@H]1C(=O)N2C(C(=O)O)=C(Sc3ccccc3-c3ccco3)CS[C@H]12")
"< 0.25 µg/mL"
>>> measured_value("O=C(Cc1ccccc1)N[C@@H]1C(=O)N2C(C(=O)O)=C(Sc3ccccc3CSC3=NCCN3)CS[C@H]12")
"< 0.25 µg/mL"
>>> measured_value("O=C(COc1ccc(Cl)cc1)N[C@@H]1C(=O)N2C(C(=O)O)=C(Sc3cc(Cl)ccc3Cl)CS[C@H]12")
"< 0.25 µg/mL"

Give MIC (S. aureus Col8A (Meth^S)(lac^-)) of the following molecule: O=C1CNC(SCc2ccccc2SC2=C(C(=O)O)N3C(=O)[C@@H](NC(=O)Cc4ccccc4)[C@H]3SC2)=N1
< 0.25 µg/mL

Lab note: need MIC with S. aureus Col8A (Meth^S)(lac^-) for entry N=C(N)SCc1ccccc1SC1=C(C(=O)O)N2C(=O)[C@@H](NC(=O)/C(=N\O)c3csc(N)n3)[C@H]2SC1 , please look it up.
≤ 0.06 µg/mL

----------
# System: S. aureus Col8A (Meth^S)(lac^-)
# assay.comment: In vitro antibacterial evaluation, MIC by agar dilution, S. aureus Col8A
# Type: cell-based
# test.conditions: Staphylococcus aureus
Where a name gives a salt, the structure may show the parent alone.
Reported MIC values for the following compounds.
Give the value, in units of µg/mL, as a plain number.

As a guide, the following entries are already answered.
>>> measured_value("O=C(O)C1=C(Sc2ccnn2-c2ccccc2)CS[C@@H]2[C@H](NC(=O)/C(=N\\O)c3ccccc3)C(=O)N12")
0.25
>>> measured_value("Nc1nc(/C(=N/OC2CCCC2)C(=O)N[C@@H]2C(=O)N3C(C(=O)O)=C(Sc4ccnn4-c4ccccc4)CS[C@H]23)cs1")
0.5
>>> measured_value("O=C(Cc1ccccc1)N[C@@H]1C(=O)N2C(C(=O)O)=C(Sc3ccc(Cl)cc3)CS[C@H]12")
0.015
>>> measured_value("O=C(CSc1ccccc1)N[C@@H]1C(=O)N2C(C(=O)O)=C(Sc3ccnn3-c3ccccc3)CS[C@H]12")
0.06
>>> measured_value("O=C(Cc1cccs1)N[C@@H]1C(=O)N2C(C(=O)O)=C(Sc3ccccc3I)CS[C@H]12")
0.125
>>> measured_value("CC(C)N=C(NC(C)C)SCC(=O)N[C@@H]1C(=O)N2C(C(=O)O)=C(Sc3ccccc3CSC(=N)N)CS[C@H]12 [Cmpd 125, trifluoroacetic acid salt]")
0.5

Which measured MIC value corresponds to N=C(NCCN1CCOCC1)SCc1ccc(SC2=C(C(=O)O)N3C(=O)[C@@H](NC(=O)Cc4ccccc4)[C@H]3SC2)c(I)c1 ?
0.5

Given the entry CSCC(=O)N[C@@H]1C(=O)N2C(C(=O)O)=C(Sc3ccccc3CSC(=N)NN)CS[C@H]12 , report its measured MIC.
0.125

----------
# Tested on: methicillinsusceptible S. aureus strain ATCC 13709
# assay.comment: In vivo antibacterial evaluation, murine model for lethal bacteremic peritonitis
# Parameters: species or system S. aureus in female Swiss-Webster mice
# test.conditions: Staphylococcus aureus, ATCC13709, sc, 72 h, two equal SC doses at challenge and 2 hours later, mice, probit, read-out: ED50
ED50: recorded values
Express the result in mg/kg but write the number alone.

>>> measured_value("O=C(CS/C=C\\Cl)N[C@@H]1C(=O)N2C(C(=O)O)=C(Sc3ccnn3-c3ccccc3)CS[C@H]12 [Cmpd 131]")
1.73
>>> measured_value("N#Cc1ncccc1SC1=C(C(=O)O)N2C(=O)[C@@H](NC(=O)Cc3ccccc3)[C@H]2SC1 [Cmpd 102]")
1.75
>>> measured_value("N#CCSCC(=O)N[C@@H]1C(=O)N2C(C(=O)O)=C(Sc3ccnn3-c3ccccc3)CS[C@H]12 [Cmpd 122]")
1.13

Quick one: ED50 of Cc1nnc(SCC(=O)N[C@@H]2C(=O)N3C(C(=O)O)=C(Sc4ccnn4-c4ccccc4)CS[C@H]23)s1 [Cmpd 118] ?
3.38

I have this molecule here, CSCC(=O)N[C@@H]1C(=O)N2C(C(=O)O)=C(Sc3ccccc3CSC(=N)N)CS[C@H]12 [Cmpd 127] , and I need its recorded ED50.
0.59

ED50 lookup needed for CO/N=C(\C(=O)N[C@@H]1C(=O)N2C(C(=O)O)=C(COC(C)=O)CS[C@H]12)c1csc(N)n1 [Cefotaxime, reference compound] , thanks.
7.47

Can you share its ED50? I mean this molecule: N#Cc1ccccc1SC1=C(C(=O)O)N2C(=O)[C@@H](NC(=O)Cc3ccccc3)[C@H]2SC1 [Cmpd 41]
1.13

What does the record list as ED50 for O=C(CSc1ccncc1)N[C@@H]1C(=O)N2C(C(=O)O)=C(Sc3ccnn3-c3ccccc3)CS[C@H]12 [Cmpd 110] ?
3.45

----------
# Test system: methicillinsusceptible S. aureus strain ATCC 13709
# assay.comment: In vivo antibacterial evaluation, murine model for lethal bacteremic peritonitis
# Set-up: species or system S. aureus in female Swiss-Webster mice
# test.conditions: Staphylococcus aureus, ATCC13709, sc, 72 h, two equal SC doses at challenge and 2 hours later, mice, probit, read-out: ED50
Where a name gives a salt, the structure may show the parent alone.
attribute.measured: ED50

Here is how some compounds turned out for ED50.
>>> measured_value("Nc1nc(/C(=N/OC2CCCC2)C(=O)N[C@@H]2C(=O)N3C(C(=O)O)=C(Sc4ccnn4-c4ccccc4)CS[C@H]23)cs1 [Cmpd 89]")
"> 10 mg/kg"
>>> measured_value("O=C(CSc1ccccc1)N[C@@H]1C(=O)N2C(C(=O)O)=C(Sc3ccnn3-c3ccccc3)CS[C@H]12 [Cmpd 119]")
"> 5 mg/kg"
>>> measured_value("CC(C)N=C(NC(C)C)SCC(=O)N[C@@H]1C(=O)N2C(C(=O)O)=C(Sc3ccccc3CSC(=N)N)CS[C@H]12 [Cmpd 125, trifluoroacetic acid salt]")
"> 10 mg/kg"
>>> measured_value("CCC(CC)O/N=C(\\C(=O)N[C@@H]1C(=O)N2C(C(=O)O)=C(Sc3ccnn3-c3ccccc3)CS[C@H]12)c1csc(N)n1 [Cmpd 104]")
"> 10 mg/kg"
>>> measured_value("O=C(O)C1=C(Sc2ccnn2-c2ccccc2)CS[C@@H]2[C@H](NC(=O)/C(=N\\O)c3ccccc3)C(=O)N12 [Cmpd 130]")
"> 10 mg/kg"

What is its ED50 for methicillinsusceptible S. aureus strain ATCC 13709? Entry: Nc1nc(/C(=N/OCC2CC2)C(=O)N[C@@H]2C(=O)N3C(C(=O)O)=C(Sc4ccnn4-c4ccccc4)CS[C@H]23)cs1 [Cmpd 108]
> 10 mg/kg
